Origin of the recorded values: the supplement of paper PMC10567573

Reported protein stability index is given for each of the following variants.
B1: KLHL14 (parent)
chain: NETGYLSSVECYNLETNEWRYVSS

# Variants of: B1
# protocol notes: protein stability index of a GFP-peptide fusion (GPS, HEK-293T) (PSI 1-6); higher = more stable;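 also: lentivirally expressed fusions sorted by FACS into six bins by GFP to DsRed ratio, PSI derived from sequencing read proportions per bin multiplied by bin number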
# test settings: c terminus: a fixed tail appended

| mutation spec | protein stability index |
| --- | --- |
| Y12F | 3.69 |
| S23T | 3.38 |
| Y12N | 3.78 |
| T16V | 3 |
| C11P | 3.92 |
| E18S | 2.9 |
| Y21N | 3.67 |
| S8Q | 3.29 |
| N1D | 3.23 |
| L6C | 3.21 |
| L14F | 3.38 |
